Items are presented alongside their recorded pIC50.
Molecular target: Androgen receptor (Homo sapiens, UniProt P10275)
Sequence (P10275 whole entry): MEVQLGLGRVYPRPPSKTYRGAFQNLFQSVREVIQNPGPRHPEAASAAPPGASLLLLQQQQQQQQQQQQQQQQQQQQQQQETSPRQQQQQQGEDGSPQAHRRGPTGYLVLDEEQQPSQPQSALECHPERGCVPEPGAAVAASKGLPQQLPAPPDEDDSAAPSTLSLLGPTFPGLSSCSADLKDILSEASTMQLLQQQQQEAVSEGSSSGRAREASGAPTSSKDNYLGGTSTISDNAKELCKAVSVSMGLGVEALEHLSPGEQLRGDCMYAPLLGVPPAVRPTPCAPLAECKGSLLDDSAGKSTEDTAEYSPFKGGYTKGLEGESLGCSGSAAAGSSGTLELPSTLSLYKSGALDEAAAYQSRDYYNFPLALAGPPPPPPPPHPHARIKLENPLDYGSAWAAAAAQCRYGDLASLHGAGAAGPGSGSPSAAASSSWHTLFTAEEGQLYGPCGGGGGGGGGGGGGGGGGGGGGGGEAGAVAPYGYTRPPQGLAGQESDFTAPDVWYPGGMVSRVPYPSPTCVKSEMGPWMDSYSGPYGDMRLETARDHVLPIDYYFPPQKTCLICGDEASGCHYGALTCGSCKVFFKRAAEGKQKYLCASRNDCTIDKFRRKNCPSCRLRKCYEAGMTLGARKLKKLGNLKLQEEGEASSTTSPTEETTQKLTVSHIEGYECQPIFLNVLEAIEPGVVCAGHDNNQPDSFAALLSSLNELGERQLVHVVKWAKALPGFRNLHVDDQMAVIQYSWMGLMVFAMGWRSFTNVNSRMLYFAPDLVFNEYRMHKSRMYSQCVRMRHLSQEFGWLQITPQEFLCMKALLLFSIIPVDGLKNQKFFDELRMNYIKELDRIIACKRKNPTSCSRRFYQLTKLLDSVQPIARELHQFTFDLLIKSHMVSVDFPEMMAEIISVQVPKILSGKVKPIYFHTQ
Assay: Displacement of [3H]mibolerone from androgen receptor (unknown origin) after 3 hrs
pIC50: −log10 of the molar value.
Experimental Endpoint: pIC50

>>> value_measured("CC(C)[C@H]1CCCN1c1ccc(C#N)c2ccccc12")
8.85
>>> value_measured("N#Cc1ccc(N2CCC[C@@H]2C#N)c2ccccc12")
9.00
>>> value_measured("C[C@H]1[C@@H](CO)CCN1c1ccc(C#N)c2ccccc12")
8.39
>>> value_measured("COC(=O)[C@H]1CCN(c2ccc(C#N)c3ccccc23)[C@H]1C")
8.12
>>> value_measured("CC1(C)CCCN1c1ccc(C#N)c2ccccc12")
8.15
>>> value_measured("C[C@H]1C(=O)CCN1c1ccc(C#N)c2ccccc12")
7.43
>>> value_measured("N#Cc1ccc(N2CCCC2)c2ccccc12")
8.60
>>> value_measured("C[C@H]1[C@@H](O)CCN1c1ccc(C#N)c2ccccc12")
8.66
>>> value_measured("C[C@H]1[C@@H](C(C)(C)O)CCN1c1ccc(C#N)c2ccccc12")
8.85
>>> value_measured("O=[N+]([O-])c1ccc(N2CCCC2)c2ccccc12")
8.60
>>> value_measured("C[C@H]1[C@H](O)CCN1c1ccc(C#N)c2ccccc12")
8.62
>>> value_measured("C[C@@H]1CCCN1c1ccc(C#N)c2ccccc12")
7.70
>>> value_measured("CC[C@H]1CCCN1c1ccc(C#N)c2ccccc12")
8.96
>>> value_measured("N#Cc1ccc(N2CCC[C@@H]2C(N)=O)c2ccccc12")
7.47
>>> value_measured("C[C@H]1CCCN1c1ccc(C#N)c2ccccc12")
9.08
